biological target: Non-receptor tyrosine-protein kinase TYK2 (Homo sapiens, UniProt P29597); test: Inhibition of TYK2 JH2 domain in IFNalpha/IL23-stimulated human Kit225 cells by luciferase reporter assay
Sequence (P29597 whole entry, the tested form may be a part): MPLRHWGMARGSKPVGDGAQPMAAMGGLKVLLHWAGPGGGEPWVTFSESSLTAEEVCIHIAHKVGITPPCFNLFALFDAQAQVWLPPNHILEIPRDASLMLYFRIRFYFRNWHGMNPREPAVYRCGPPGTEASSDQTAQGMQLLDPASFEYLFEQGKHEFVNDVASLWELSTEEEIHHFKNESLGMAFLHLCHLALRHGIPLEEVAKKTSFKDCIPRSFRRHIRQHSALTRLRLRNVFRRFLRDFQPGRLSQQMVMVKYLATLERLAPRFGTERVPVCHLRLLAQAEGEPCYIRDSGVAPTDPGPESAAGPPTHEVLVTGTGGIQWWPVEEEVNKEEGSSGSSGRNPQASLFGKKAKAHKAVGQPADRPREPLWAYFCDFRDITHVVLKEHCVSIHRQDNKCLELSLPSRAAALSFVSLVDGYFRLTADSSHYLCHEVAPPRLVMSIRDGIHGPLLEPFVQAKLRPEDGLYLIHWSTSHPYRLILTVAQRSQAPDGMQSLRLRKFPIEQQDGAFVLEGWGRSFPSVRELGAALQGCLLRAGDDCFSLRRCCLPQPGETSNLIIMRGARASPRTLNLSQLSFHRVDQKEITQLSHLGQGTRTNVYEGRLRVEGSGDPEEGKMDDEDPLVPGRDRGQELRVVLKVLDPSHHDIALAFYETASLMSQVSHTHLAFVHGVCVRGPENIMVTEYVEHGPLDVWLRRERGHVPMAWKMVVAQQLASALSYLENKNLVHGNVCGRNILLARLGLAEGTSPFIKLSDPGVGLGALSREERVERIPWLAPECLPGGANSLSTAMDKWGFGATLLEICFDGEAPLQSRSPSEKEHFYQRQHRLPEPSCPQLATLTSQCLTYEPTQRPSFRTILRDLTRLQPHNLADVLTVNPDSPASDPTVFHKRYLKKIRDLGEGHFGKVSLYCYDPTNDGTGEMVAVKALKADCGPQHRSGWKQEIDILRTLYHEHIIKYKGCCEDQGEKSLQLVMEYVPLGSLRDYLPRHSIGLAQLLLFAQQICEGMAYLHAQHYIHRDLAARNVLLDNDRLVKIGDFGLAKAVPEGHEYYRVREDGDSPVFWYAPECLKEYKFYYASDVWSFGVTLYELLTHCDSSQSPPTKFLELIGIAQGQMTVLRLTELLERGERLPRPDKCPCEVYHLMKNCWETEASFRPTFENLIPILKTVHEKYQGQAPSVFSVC
measure: pIC50
# pIC50: negative log10 of molar concentration; output just the value

smiles_string: CNc1cc(Nc2cccn(-c3cc(C)n(C)n3)c2=O)nn2c(C(=O)NC3CC3)cnc12
pIC50: 6.87
//
smiles_string: CNc1cc(Nc2cccn(C)c2=O)nn2c(C(=O)NC3CC3)cnc12
pIC50: 6.21
//
smiles_string: CNc1cc(Nc2cccn(-c3ccccn3)c2=O)nn2c(C(=O)NCC(C)(C)CO)cnc12
pIC50: 7.08
//
smiles_string: CNc1cc(Nc2cccn(-c3ccccn3)c2=O)nn2c(C(=O)NC3CCC3)cnc12
pIC50: 7.22
//
smiles_string: CNc1cc(Nc2cccn(-c3ccncc3)c2=O)nn2c(C(=O)NC3CC3)cnc12
pIC50: 6.83
//
smiles_string: CNc1cc(Nc2cccn(-c3ccc(C)nn3)c2=O)nn2c(C(=O)NC3CC3)cnc12
pIC50: 6.83
//
smiles_string: CNc1cc(Nc2cccn(-c3ccc(C)nn3)c2=O)nn2c(C(=O)N[C@@H]3C[C@@H]3F)cnc12
pIC50: 7.39
//
smiles_string: CNc1cc(Nc2cccn(-c3ccccn3)c2=O)nn2c(C(=O)NC3CC3)cnc12
pIC50: 7.03

Item CNc1cc(Nc2cccn(-c3cc(C)n(C)n3)c2=O)nn2c(C(=O)N[C@@H]3C[C@@H]3F)cnc12 has what recorded pIC50?
7.66

Item CNc1cc(Nc2cccn(-c3ncc(F)cn3)c2=O)nn2c(C(=O)NC3CC3)cnc12 has what recorded pIC50?
6.63

Attribution: ChEMBL document CHEMBL4400582
